- EXPERIMENTAL SYSTEM: Receptor tyrosine-protein kinase erbB-4 (Homo sapiens) (UniProt Q15303);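 also: each value is a mean percent inhibition of ERBB4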
- Sequence (Q15303 whole entry): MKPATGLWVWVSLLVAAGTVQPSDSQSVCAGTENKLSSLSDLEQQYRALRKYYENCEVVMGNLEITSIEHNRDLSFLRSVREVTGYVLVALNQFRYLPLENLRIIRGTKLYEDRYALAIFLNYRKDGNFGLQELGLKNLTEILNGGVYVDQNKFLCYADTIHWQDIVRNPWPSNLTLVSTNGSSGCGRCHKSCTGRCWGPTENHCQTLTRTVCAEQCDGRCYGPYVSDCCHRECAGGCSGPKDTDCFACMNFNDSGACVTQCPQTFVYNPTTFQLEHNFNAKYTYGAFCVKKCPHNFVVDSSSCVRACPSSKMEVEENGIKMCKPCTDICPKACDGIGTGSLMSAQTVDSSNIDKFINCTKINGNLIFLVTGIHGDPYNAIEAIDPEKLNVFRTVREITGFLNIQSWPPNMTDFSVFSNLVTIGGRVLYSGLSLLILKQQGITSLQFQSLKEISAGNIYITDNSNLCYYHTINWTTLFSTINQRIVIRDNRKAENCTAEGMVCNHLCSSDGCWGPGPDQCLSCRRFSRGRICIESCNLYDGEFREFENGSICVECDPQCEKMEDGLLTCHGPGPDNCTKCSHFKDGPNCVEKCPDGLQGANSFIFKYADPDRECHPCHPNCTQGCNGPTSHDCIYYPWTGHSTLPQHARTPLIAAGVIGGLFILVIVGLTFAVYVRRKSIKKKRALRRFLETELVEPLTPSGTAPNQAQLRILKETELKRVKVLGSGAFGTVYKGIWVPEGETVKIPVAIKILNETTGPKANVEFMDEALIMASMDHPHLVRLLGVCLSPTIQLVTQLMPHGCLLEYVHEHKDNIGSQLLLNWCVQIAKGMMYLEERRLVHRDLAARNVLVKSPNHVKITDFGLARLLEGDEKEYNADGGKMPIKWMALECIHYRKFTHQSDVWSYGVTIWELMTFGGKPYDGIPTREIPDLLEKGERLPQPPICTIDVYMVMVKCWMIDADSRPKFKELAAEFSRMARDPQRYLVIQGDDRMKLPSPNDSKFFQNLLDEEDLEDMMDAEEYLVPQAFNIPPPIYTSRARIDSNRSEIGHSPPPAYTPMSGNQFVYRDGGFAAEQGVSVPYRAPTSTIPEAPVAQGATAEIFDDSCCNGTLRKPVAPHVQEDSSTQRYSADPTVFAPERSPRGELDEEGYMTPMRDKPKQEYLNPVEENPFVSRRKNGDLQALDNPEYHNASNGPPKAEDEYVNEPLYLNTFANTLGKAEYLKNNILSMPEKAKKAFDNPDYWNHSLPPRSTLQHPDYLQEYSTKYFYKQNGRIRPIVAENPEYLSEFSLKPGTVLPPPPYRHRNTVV
- CONDITION INFO: at 1 µM
Lab note: compare inhibition against 9%. Equal or greater, write True. Smaller, write False.

Inquiry: Quick check, inhibition >= 9%? CCc1ccc(Oc2nccc(-c3c(-c4ccc(F)cc4)ncn3C3CCNCC3)n2)cc1
Reply text: True

Inquiry: Quick check, inhibition >= 9%? c1ccc(Oc2ccc(Nc3ncc(-c4ccccc4)o3)cc2)cc1
Reply text: False

Inquiry: Quick check, inhibition >= 9%? O=C1Nc2ccc(I)cc2C1=Cc1cc(Br)c(O)c(Br)c1
Reply text: True

Inquiry: Quick check, inhibition >= 9%? COc1cccc(-n2cnc3c(N/N=C/c4ccncc4)ncnc32)c1
Reply text: False

Inquiry: Quick check, inhibition >= 9%? NC(=O)c1cc(-c2ccc(F)cc2)cc(-c2ccncc2)c1N
Reply text: True

Inquiry: Quick check, inhibition >= 9%? CCc1nccc2c1nc(-c1nonc1N)n2CC
Reply text: True

----------
Kindly supply the reported inhibition values for the records listed here.
- EXPERIMENTAL SYSTEM: Casein kinase I isoform gamma-1 (Homo sapiens);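 also: reported value is the mean inhibition of CK1 gamma-1 kinase activity across replicate measurements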
- CONDITION INFO: at 1 µM
# value in %; strip the unit string

Inquiry: What does the data say about its inhibition? Entry: O=C(Nc1n[nH]c2cc(-c3ccccc3)ccc12)C1CC1
Reply text: 5.75

Inquiry: What does the data say about its inhibition? Entry: NC(=O)Cc1ccccc1Oc1nccc(-c2c(-c3ccc(F)cc3)ncn2C2CCNCC2)n1
Reply text: 10.3

Inquiry: What does the data say about its inhibition? Entry: O=C(Nc1n[nH]c2nc(-c3ccc(O)cc3)c(Br)cc12)C1CC1
Reply text: 5.67

----------
- EXPERIMENTAL SYSTEM: Rhodopsin kinase GRK7 (Homo sapiens) (UniProt Q8WTQ7);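 also: reported figures are mean percent inhibition of GRK7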
- Sequence (whole entry): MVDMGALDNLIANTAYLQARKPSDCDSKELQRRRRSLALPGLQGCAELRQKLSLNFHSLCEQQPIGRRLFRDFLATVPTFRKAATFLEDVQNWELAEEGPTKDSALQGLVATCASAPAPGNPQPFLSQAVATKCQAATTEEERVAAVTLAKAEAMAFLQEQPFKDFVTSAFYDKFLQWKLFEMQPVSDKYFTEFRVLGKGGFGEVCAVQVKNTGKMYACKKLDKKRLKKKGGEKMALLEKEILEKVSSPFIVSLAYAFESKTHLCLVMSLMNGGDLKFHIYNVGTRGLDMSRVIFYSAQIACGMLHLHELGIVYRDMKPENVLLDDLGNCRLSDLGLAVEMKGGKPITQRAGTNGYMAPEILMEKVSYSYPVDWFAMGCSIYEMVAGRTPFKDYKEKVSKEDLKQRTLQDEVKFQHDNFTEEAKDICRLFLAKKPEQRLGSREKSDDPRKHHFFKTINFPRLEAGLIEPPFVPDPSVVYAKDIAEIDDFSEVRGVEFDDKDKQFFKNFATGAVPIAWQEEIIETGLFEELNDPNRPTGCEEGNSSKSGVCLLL
- CONDITION INFO: at 0.1 µM
Kindly supply the reported inhibition values for the records listed here.
# value in %; strip the unit string

Inquiry: What does the data say about its inhibition? Entry: C#Cc1cccc(Nc2ncnc3ccc(OCCCCNCCS(C)(=O)=O)cc23)c1
Reply text: 4.84

Inquiry: What does the data say about its inhibition? Entry: COc1cc(N2CCN(C(C)C)CC2)ccc1Nc1nc(Nc2ccc(F)cc2C(=O)NC[C@@H](O)CO)c2cc[nH]c2n1
Reply text: 5.2

Inquiry: What does the data say about its inhibition? Entry: O=C(Nc1ccc(Oc2ccc3[nH]c(NC(=O)c4ccccc4)nc3c2)cc1)Nc1cc(C(F)(F)F)ccc1F
Reply text: 0.51

Inquiry: What does the data say about its inhibition? Entry: COc1cc2ncn(-c3cc(OCc4ccccc4C(F)(F)F)c(C(C)=O)s3)c2cc1OC
Reply text: 4.7

Inquiry: What does the data say about its inhibition? Entry: O=C1NC(=O)C(c2cccc(Cl)c2)=C1Nc1ccc(Cl)c(C(=O)O)c1
Reply text: 13.2

Inquiry: What does the data say about its inhibition? Entry: C[C@@H](Oc1cc(-n2cnc3ccc(OC4CCN(C)CC4)cc32)sc1C(N)=O)c1ccccc1Cl
Reply text: 10.7

Inquiry: What does the data say about its inhibition? Entry: O=C(Nc1n[nH]c2nc(-c3ccco3)ccc12)C1CC1
Reply text: -1.29

Inquiry: What does the data say about its inhibition? Entry: NC(=O)c1cc(-c2ccc(F)cc2)cc(-c2ccncc2)c1N
Reply text: 2.49

Inquiry: What does the data say about its inhibition? Entry: CS(=O)(=O)CCNCc1cc(-c2cc3c(Nc4ccc(OCc5cccc(F)c5)c(Cl)c4)ncnc3s2)cs1
Reply text: 8.59

Inquiry: What does the data say about its inhibition? Entry: CCc1ccc(Oc2nccc(-c3c(-c4ccc(F)cc4)ncn3C3CCNCC3)n2)cc1
Reply text: 6.57

Inquiry: What does the data say about its inhibition? Entry: NC(=O)c1ccc(Oc2nccc(-c3c(-c4ccc(F)cc4)ncn3C3CCNCC3)n2)cc1
Reply text: -1.91

Inquiry: What does the data say about its inhibition? Entry: COc1cc(Nc2ncc(-c3ccccc3)o2)cc(OC)c1OC
Reply text: 3.87

Inquiry: What does the data say about its inhibition? Entry: COC(=O)Nc1nc2ccc(Sc3ccc(NC(=O)Nc4cc(C(F)(F)F)ccc4F)cc3)cc2[nH]1
Reply text: -0.34

Values were extracted from ChEMBL document CHEMBL1961873.
